B1: LINE1-full (parent)
chain: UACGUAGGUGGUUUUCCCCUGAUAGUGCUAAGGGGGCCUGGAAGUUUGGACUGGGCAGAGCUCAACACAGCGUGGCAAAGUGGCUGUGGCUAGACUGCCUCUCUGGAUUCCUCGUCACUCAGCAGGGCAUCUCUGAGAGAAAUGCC

# Variants of: B1
# assay notes: self-cleavage, relative activity (ratio to wild type); higher = more cleavage; in vitro, sequencing; the parent is a self-cleaving ribozyme
observation type: self-cleavage
Form rule: numeric answer, no unit written next to it.

[in] Determine from records and report self-cleavage for UACGUAGAUGGUUUUCCCCUGAUAGUGCUAAGGGGGCCUGGAAGUUUGGACUGGGCAGAGCUCAACACAGCGUGGCAAAGUAGCUGUGGCUAGACUGCCUCUCUGGAUUCCUCGUCACUCAGCAGGGCAUCUCUGAGAGAAAUGCC [G8A G82A]
[out] 1.71

[in] Determine from records and report self-cleavage for UACGUAGGUGGUUUUCCCCUGAUAGUGCUAAGGGGGCCUGGAAGUUUGGACUGGGCAGAGCUCAACACAGCGUGGCAAAGUGGCUGUGGCUAGACUGCCUCUCUGGAUCCCUCGUCGCUCAGCAGGGCAUCUCUGAGAGAAAUGCC [U109C A117G]
[out] 1.7

[in] Determine from records and report self-cleavage for UACGUAGGUGGUUUUCCCCUGAAAGUGCUAAGGGGGCCUGGAAGUUUGGACUGGGCAGAGCUCAACACAGCGUGGCAAAGUGGCUGUGGCUAGACUGCCUCUCUGGAUUCCUCGUCACUCAGCGGGGCAUCUCUGAGAGAAAUGCC [U23A A124G]
[out] 0.94

[in] Determine from records and report self-cleavage for UACGUAGGUGGUUUUCCCCUGAUAGUGCUAAGGGGGCCUGGAAGUAUGGACUGGGCAGAGCACAACACAGCGUGGCAAAGUGGCUGUGGCUAGACUGCCUCUCUGGAUUCCUCGUCACUCAGCAGGGCAUCUCUGAGAGAAAUGCC [U46A U62A]
[out] 0.04

[in] Determine from records and report self-cleavage for UACGUAGGUGGUUUUCCCCAGAUAGUGCUAAGGGGGCCUGGAAGUUUGGACUGGGCAGAGCUCAACACAGCGUGGCAAAGUGGCUGUGGCUAGACUGCCUCUCUGGAUUCCUCGUCACUCAGCAGGGCAACUCUGAGAGAAAUGCC [U20A U130A]
[out] 0.32

[in] Determine from records and report self-cleavage for UACGUAGGUGGUUUUCCCCUGAUAGUGCUAAGGGGGCCCGGAAGUUUGGACUUGGCAGAGCUCAACACAGCGUGGCAAAGUGGCUGUGGCUAGACUGCCUCUCUGGAUUCCUCGUCACUCAGCAGGGCAUCUCUGAGAGAAAUGCC [U39C G53U]
[out] 1.26

[in] Determine from records and report self-cleavage for UACGUAGGUGGUUUUCCCCUGAUAGUGCUAAGGGGGCCUGGAAGUUUGGACUGGGCAGAGCUCAACACAGCGUGGCAAAGUGGCUGUGGCUAGACAGCCUCUCUGGAUUCCUCGUCACUCAGCAGGUCAUCUCUGAGAGAAAUGCC [U96A G127U]
[out] 0.05

[in] Determine from records and report self-cleavage for UACGCAGGUGGUUUUCCCCUGAUAGUGCUAAGGGGGCCUGGAAGUUUGGACUGGGCAGAGCUCAACACAGCGUGGCAAAGUGGCUGUGGCUAGACUGCCUCUCUGGAUUCCUCGUCACUCAGUAGGGCAUCUCUGAGAGAAAUGCC [U5C C123U]
[out] 0.45

[in] Determine from records and report self-cleavage for UACGUAGGUGGUUUUCCCCUGAUAGUGCUAAGGGGGCCUGGAAGUUUGGACUGGGCAGAGCUCAACCCAGCGUGGCAAAGUGGCUGUGGCUAGACUGCCUCUCUGGAUUCCUCGUCACUCAGCAGGGCAUCUCAGAGAGAAAUGCC [A67C U134A]
[out] 0.02

[in] Determine from records and report self-cleavage for UACGUAGGUGGUUUUCCCCUGAUAGUGCUAAGGGGGCCUGGAAGUUUGGACUGGGCAGAGCUCAACACAGCGCGGCAAAGUGGCUGUGGCUAGACUGCCUCUCUGGAUUCCUCGUCACUCAGCAGGGCAUCUCUGAGGGAAAUGCC [U73C A138G]
[out] 2.26

[in] Determine from records and report self-cleavage for UACGUAGGUGGUUUUCCCCUGAUAGUGCUAAGGGGGCCUGGAAGGUUGGACUGGGCAGAGCUCGACACAGCGUGGCAAAGUGGCUGUGGCUAGACUGCCUCUCUGGAUUCCUCGUCACUCAGCAGGGCAUCUCUGAGAGAAAUGCC [U45G A64G]
[out] 0.24

[in] Determine from records and report self-cleavage for UACGAAGGUGGUUUUCCCCUGAUAGUGCUAAGGGGGCCUGGAAGUUUGGACUAGGCAGAGCUCAACACAGCGUGGCAAAGUGGCUGUGGCUAGACUGCCUCUCUGGAUUCCUCGUCACUCAGCAGGGCAUCUCUGAGAGAAAUGCC [U5A G53A]
[out] 0.79

[in] Determine from records and report self-cleavage for UACGUAGGAGGUUUUCCCCUGAUAGUGCUAAGGGGGCCUGGAAGUUUGGACUGGGCAGAGCUCAACACAGCGUGGCAAAGUGGCUGUAGCUAGACUGCCUCUCUGGAUUCCUCGUCACUCAGCAGGGCAUCUCUGAGAGAAAUGCC [U9A G88A]
[out] 0.12

[in] Determine from records and report self-cleavage for UACGUAGGUGGUUUUCCCCAGAUAGUGCUAAGGGGGCCUGGAAGUUUGGACUGGGCAGAGCUCAACACAGCGUGGCAAAGUGGCUGUGGCUAGAAUGCCUCUCUGGAUUCCUCGUCACUCAGCAGGGCAUCUCUGAGAGAAAUGCC [U20A C95A]
[out] 0.09

[in] Determine from records and report self-cleavage for UACGUAGGUGGUUUUCCCCUGAUAGUGCUAAGGGGGCCUGGAAGUUUGGACUGGGCAGAGCUCUACACAGCGUGGCAAAGUGGCUGUGGCUAGACUGCCUCUCUGGAUUCCUCGUCACUCAGCAGGGCAUCUCUGAGAGAGAUGCC [A64U A141G]
[out] 0.32

[in] Determine from records and report self-cleavage for UACGUAGGUGGUUUUCCCCUGAUAGUGCUAAGGGGGCCUGGAAGUUUGGACUGGGCAGAGCUCAACACAGCGAGGCAAAGUGGCUGUGGCUAGACUGCCUCUCUGGAGUCCUCGUCACUCAGCAGGGCAUCUCUGAGAGAAAUGCC [U73A U108G]
[out] 0.44

[in] Determine from records and report self-cleavage for UACGUAGGUGGUUUUCCCCUGAUAGUGCUAAGGGGGCCUGGAAGUUUGGACUGGGCAGUGCUCAACACAGCGUGGCAAAGUGGCUGUGGCUAGACUGCCUCUCUGGAUUCCUCGUCACUCAGCAGGGCAUCUCUGAGAGAUAUGCC [A59U A141U]
[out] 1.03

[in] Determine from records and report self-cleavage for UACGUAGGUGGUUUACCCCUGAUAGUGCUAAGGGGGCCUGGAAGUUUGGACUGGGCAGAGCUCAACACAGCGUGGCAAAGUGGCUGUGGCUAGACUGCCACUCUGGAUUCCUCGUCACUCAGCAGGGCAUCUCUGAGAGAAAUGCC [U15A U100A]
[out] 0.59

[in] Determine from records and report self-cleavage for UACGUAGGUGGUUUUCCCCUGAUAGUGCUAAGGGGGCCUGGAAGUUUGGACUGGGCAGAGCUCAACACAGCGUGGCAAAGUGGCUGUGGCUGGACUGCCUCUCUGGAUUCCUCGUCACUCAGCAGGGUAUCUCUGAGAGAAAUGCC [A92G C128U]
[out] 0.03

[in] Determine from records and report self-cleavage for UACGUAGGUGGUUUUCCCCUGAUAGUGCUAAGGGGGCCUGGAAGUUUGGACUGGGCAGAGCUCAACACAGCGUGGCAAAGUGGCUGUGGCUUGACUGCCUCUCUGGAUUCCUCGACACUCAGCAGGGCAUCUCUGAGAGAAAUGCC [A92U U115A]
[out] 0.62

[in] Determine from records and report self-cleavage for UACGUAGGUGGUUUUCCCCUGAUAGUGCUAAGGGGGCCUGGAAGUUUGGACUGGGCAGAGCUCAAAACAGCGUGGCAAAGUGGCUGUGGCUAGACUGCCUCUCUGGAUUCCUCGCCACUCAGCAGGGCAUCUCUGAGAGAAAUGCC [C66A U115C]
[out] 0.05

[in] Determine from records and report self-cleavage for UACGUAGGUGGUUUUCCCCUGAUAGUGCUAAGGGGGCCUGGAAGUCUGGACUGGGCAGAGCUCUACACAGCGUGGCAAAGUGGCUGUGGCUAGACUGCCUCUCUGGAUUCCUCGUCACUCAGCAGGGCAUCUCUGAGAGAAAUGCC [U46C A64U]
[out] 0.55
